target-or-system: KRAS G12V (Homo sapiens (Human), UniProt P01116+P62937, G12V)
Sequence (P01116-2 other isoform, or with tags, fused parts or gaps G12V): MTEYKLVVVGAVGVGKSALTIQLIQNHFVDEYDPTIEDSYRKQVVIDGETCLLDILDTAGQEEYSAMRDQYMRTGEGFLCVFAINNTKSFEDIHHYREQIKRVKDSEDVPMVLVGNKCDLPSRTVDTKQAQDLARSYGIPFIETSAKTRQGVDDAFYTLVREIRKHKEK
Sequence (P62937 whole entry): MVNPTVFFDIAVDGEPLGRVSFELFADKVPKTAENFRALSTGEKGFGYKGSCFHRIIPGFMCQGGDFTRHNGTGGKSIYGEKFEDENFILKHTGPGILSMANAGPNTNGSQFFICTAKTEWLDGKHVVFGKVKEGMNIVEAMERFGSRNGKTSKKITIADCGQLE
measurement-notes: Ras-Raf (BRAF RBD) disruption / FRET / MOA assay, KRAS G12V
Type: biochemical
assay-context: read-out: IC50* KRAS G12V FRET data
Experimental: The purpose of this biochemical assay is to measure the ability of test compounds to facilitate ternary complex formation between a nucleotide-loaded Ras isoform and cyclophilin A; the resulting ternary complex disrupts binding to a BRAF^RBD construct, inhibiting Ras signaling through a RAF effector. Compound is present in plate wells as a 10-point 3-fold dilution series starting at a final concentration of 30 μM. […]
Each entry below carries its reported IC50.
observable: IC50

>>> measured_result("C=CC(=O)N1CCC2(CCCN(C(=O)N(C)[C@H](C(=O)N[C@H]3Cc4nc(cs4)-c4ccc5c(c4)c(c(-c4cccnc4[C@H](C)OC)n5CC)CC(C)(C)COC(=O)[C@@H]4CCCN(N4)C3=O)C(C)C)C2)CC1 (atropisomer, axis not shown)")
"100 to 1000 nM"
>>> measured_result("C=CC(=O)N1CCCC2(CCN(C(=O)N(C)[C@H](C(=O)N[C@H]3Cc4nc(cs4)-c4ccc5c(c4)c(c(-c4cccnc4[C@H](C)OC)n5CC)CC(C)(C)COC(=O)[C@@H]4CCCN(N4)C3=O)C(C)C)CC2)C1 (atropisomer, axis not shown)")
"100 to 1000 nM"
>>> measured_result("C=CC(=O)N1CC[C@H](C(=O)N(C)[C@H](C(=O)N[C@H]2Cc3cc(sn3)-c3ccc4c(c3)c(c(-c3cccnc3[C@H](C)OC)n4CC)CC(C)(C)COC(=O)[C@@H]3CCCN(N3)C2=O)C(C)C)C1 (atropisomer, axis not shown)")
"1000 to 10000 nM"
>>> measured_result("C=CC(=O)N1CCC(F)(C(=O)N(C)[C@H](C(=O)N[C@H]2C[C@H]3CN(CCO3)c3ccc4c(c3)c(c(-c3cccnc3[C@H](C)OC)n4CC)CC(C)(C)COC(=O)[C@@H]3CCCN(N3)C2=O)C(C)C)CC1 (atropisomer, axis not shown)")
"1000 to 10000 nM"
>>> measured_result("CCn1c(-c2cccnc2[C@H](C)OC)c2c3cc(ccc31)-c1csc(n1)C[C@H](NC(=O)[C@H](C(C)C)N(C)C(=O)N1CCC13CN(C(=O)C#CC(C)(C)N(C)C)C3)C(=O)N1CCC[C@H](N1)C(=O)OCC(C)(C)C2 (atropisomer, axis not shown)")
"1000 to 10000 nM"
>>> measured_result("C=CC(=O)N1CCC2(C1)CN(C(=O)N(C)[C@H](C(=O)N[C@H]1Cc3nc(cs3)-c3ccc4c(c3)c(c(-c3cccnc3[C@H](C)OC)n4CC(F)(F)F)CC(C)(C)COC(=O)[C@@H]3CCCN(N3)C1=O)C(C)C)C2")
"100 to 1000 nM"
>>> measured_result("CCn1c(-c2cccnc2[C@H](C)OC)c2c3cc(ccc31)-c1csc(n1)C[C@H](NC(=O)C[C@H](C)OC1CN(C(=O)C#CC(C)(C)N(C)C)C1)C(=O)N1CCC[C@H](N1)C(=O)OCC(C)(C)C2 (atropisomer, axis not shown)")
"1000 to 10000 nM"
>>> measured_result("C=CC(=O)N1CCOC2(CCN(C(=O)N(C)[C@H](C(=O)N[C@H]3Cc4nc(n(C)n4)-c4ccc5c(c4)c(c(-c4cccnc4[C@H](C)OC)n5CC(F)(F)F)CC(C)(C)COC(=O)[C@@H]4CCCN(N4)C3=O)C(C)C)CC2)C1 (atropisomer, axis not shown)")
"100 to 1000 nM"
